The origin of these recorded values is patent US20240158446A1.

// human lung cancer strain NCI-H441 pIC50 records
Where a SMILES comes first, the peptide text is derived from it. Bridges are numbered along the chain shown (N, C = ends). [ ]: non-standard residue; d: D form. The star is where a group is joined. hPhe(3-Cl-4-CF3) = N[C@@H](CCc1ccc(C(F)(F)F)c(Cl)c1)C(=O)O; NPrPhe(4-CF3) = CCCN[C@@H](Cc1ccc(C(F)(F)F)cc1)C(=O)O; NMeGly(cPent) = CN[C@H](C(=O)O)C1CCCC1; NMeF = CN[C@@H](Cc1ccccc1)C(=O)O; NMeD = CN[C@@H](CC(=O)O)C(=O)O; NMeL = CN[C@@H](CC(C)C)C(=O)O; Morpholide = C1CN(*)CCO1; Ac5c = NC1(C(=O)O)CCCC1; Aze = O=C(O)[C@@H]1CCN1; Sar = CNCC(=O)O
Please express pIC50 as -log10 of the molar concentration.

Answered cases to consult:
compound	pIC50
CC[C@H](C)[C@@H]1NC(=O)[C@H](COC)N(C)C(=O)C[C@@H](C(=O)N(C)C)N(C)C(=O)[C@H](C2CCCC2)N(C)C(=O)C2(CC(C)(C)C2)NC(=O)[C@@H]2C[C@@H](OC3CCC3)CN2C(=O)[C@H](CCc2cc(F)c(C(F)(F)F)c(F)c2)NC(=O)CN(C)C(=O)[C@H](CC2CCC(F)(F)CC2)N2CC/C=C\C[C@@H](C2=O)N(C)C(=O)CN(C2CC2)C1=O	7.36
CCCOC[C@H]1C(=O)N[C@@H]([C@@H](C)CC)C(=O)N(C)CC(=O)N(C)[C@H]2C/C=C\CCN(C2=O)[C@@H](Cc2ccc(C)cc2)C(=O)N(C)CC(=O)N[C@@H](CCc2ccc(C(F)(F)F)c(OC)c2)C(=O)N2C[C@H](OCC)C[C@H]2C(=O)NC2(CC(C)(C)C2)C(=O)N(C)[C@@H](C2CCCC2)C(=O)N(C)[C@H](C(=O)N(C)C)CC(=O)N1C	8.11
CCO[C@@H]1C[C@H]2C(=O)NC3(CCCC3)C(=O)N(C)[C@@H](C(CC)CC)C(=O)N(C)[C@H](C(=O)N3CCCC3)CC(=O)N(C)[C@@H](C)C(=O)N[C@@H]([C@@H](C)CC)C(=O)N(C)CC(=O)N(C)[C@H]3C/C=C\CCN(C3=O)[C@@H](CC3CCCCC3)C(=O)N(C)CC(=O)N[C@@H](CCc3cc(F)c(C(F)(F)F)c(F)c3)C(=O)N2C1	6.75
CCC(CC)[C@H]1C(=O)N(C)[C@H](C(=O)N(C)C)CC(=O)N(C)[C@@H](COC)C(=O)N[C@@H]([C@@H](C)CC)C(=O)N2CCC[C@H]2C(=O)N(C)[C@H]2C/C=C\CCN(C2=O)[C@@H](Cc2ccc(C(F)(F)F)cc2)C(=O)N(C)CC(=O)N[C@@H](CCc2ccc(Cl)c(Cl)c2)C(=O)N2C[C@H](OC3CCCC3)C[C@H]2C(=O)NC2(CC(C)(C)C2)C(=O)N1C	6.83
CCCO[C@H](C)[C@@H]1NC(=O)[C@H](CC(C)C)N(C)C(=O)C[C@@H](C(=O)N(C)CC)N(C)C(=O)[C@H](C2CCCC2)N(C)C(=O)C2(CC(C)(C)C2)NC(=O)[C@@H]2C[C@H](C)CN2C(=O)[C@H](CCc2cc(F)c(C(F)(F)F)c(F)c2)NC(=O)CN(C)C(=O)[C@H](Cc2ccc(C)cc2)N2CC/C=C\C[C@@H](C2=O)N(C)C(=O)CN(C)C1=O	7.80
CCCCCC[C@H]1C(=O)N[C@@H]([C@@H](C)CC)C(=O)N(C)CC(=O)N(C)[C@H]2C/C=C\CCN(C2=O)[C@@H](Cc2ccc(C(F)(F)F)cc2)C(=O)N(C)CC(=O)N[C@@H](CCc2ccc(C(F)(F)F)c(OC)c2)C(=O)N2C[C@H](OCC)C[C@H]2C(=O)NC2(CCC2)C(=O)N(C)[C@@H](C2CCCC2)C(=O)N(C)[C@H](C(=O)N(C)C)CC(=O)N1C	8.05

Asked: Bench note: what pIC50 did CCO[C@@H]1C[C@H]2C(=O)NC3(CCC3)C(=O)N(C)[C@@H](C(CC)CC)C(=O)N(C)[C@H](C(=O)N(C)C)CC(=O)N(C)[C@@H](CC)C(=O)N[C@@H]([C@@H](C)CC)C(=O)N(C)CC(=O)N(C)[C@H]3C/C=C\CCN(C3=O)[C@@H](Cc3ccc(C(F)(F)F)cc3)C(=O)N(C)CC(=O)N[C@@H](CCc3ccc(Cl)c(Cl)c3)C(=O)N2C1 show?
Given back: 7.48

Asked: Proceed to CCO[C@@H]1C[C@H]2C(=O)NC3(CCC3)C(=O)N(C)[C@@H](C3CCCC3)C(=O)N(C)[C@H](C(=O)N(C)C)CC(=O)N(C)[C@@H](CC3CCC3)C(=O)N[C@@H]([C@@H](C)CC)C(=O)N(C)CC(=O)N(C)[C@H]3C/C=C\CCN(C3=O)[C@@H](CC3CCCCC3)C(=O)N(C)CC(=O)N[C@@H](CCc3cc(F)c(C(F)(F)F)c(F)c3)C(=O)N2C1
Given back: 7.65

Asked: How about CCCN1C(=O)[C@@H]2CCN2C(=O)[C@H](Cc2ccccc2)N(C)C(=O)[C@H]([C@@H](C)CC)NC(=O)[C@H](CC(C)C)N(C)C(=O)C[C@@H](C(=O)N2CCOCC2)N(C)C(=O)[C@H](C2CCCC2)N(C)C(=O)C2(CCCC2)NC(=O)[C@@H]2CCCN2C(=O)[C@H](CCc2ccc(C(F)(F)F)c(Cl)c2)NC(=O)CN(C)C(=O)[C@@H]1Cc1ccc(C(F)(F)F)cc1 [PP0209] ([NMeL]I[NMeF][Aze][NPrPhe(4-CF3)][Sar][hPhe(3-Cl-4-CF3)]P[Ac5c][NMeGly(cPent)][NMeD]-Morpholide; lactam N-11) ?
Given back: 6.25

Asked: Next compound: CCOC[C@H]1C(=O)N[C@@H]([C@@H](C)CC)C(=O)N2CCC[C@H]2C(=O)N(C)[C@H]2C/C=C\CCN(C2=O)[C@@H](CC2CCC(F)(F)CC2)C(=O)N(C)CC(=O)N[C@@H](CCc2ccc(C(F)(F)F)c(OC)c2)C(=O)N2C[C@H](OCC)C[C@H]2C(=O)N(C)C2(CCC2)C(=O)N(C)[C@@H](C(CC)CC)C(=O)N(C)[C@H](C(=O)N(C)C)CC(=O)N1C
Given back: 6.99

Asked: Here is the next compound: CCO[C@@H]1C[C@H]2C(=O)NC3(CCC3)C(=O)N(C)[C@@H](C3CCCC3)C(=O)N(C)[C@H](C(=O)N3CCOCC3)CC(=O)N(C)[C@@H](Cc3cccc(C)c3)C(=O)N[C@@H]([C@@H](C)CC)C(=O)N(C)CC(=O)N(C)[C@H]3CCCCCN(C3=O)[C@@H](Cc3ccc(C(F)(F)F)cc3)C(=O)N(C)CC(=O)N[C@@H](CCc3cc(F)c(C(F)(F)F)c(F)c3)C(=O)N2C1
Given back: 6.80
